# System: SMN2 Splicing D7 (SMN Δ7 transcript)
# PROCEDURE TEXT: SMN Quantitative Splicing Assay (qPCR)
# Format: cell-based, human
# TEST PARAMETERS: Homo sapiens, Fibroblast, 24 h, SMA patient fibroblasts (GM03813), 2.5 µM to 0.6 nM
# IC50 annotations

Illustrative cases are given below, each with its answer.
Given CN(c1cnc(-c2cc3ncn(C)c(=O)c3cc2O)nn1)C1C[C@@]2(C)CCC(N2)[C@@H]1F (stereo partly drawn) , state its recorded IC50. 0.01 to 15 nM

Given CN(c1cnc(-c2cc3cnn(C)c(=O)c3cc2O)nn1)C1CC2COCC(C1)N2 (stereo not drawn) , state its recorded IC50. 0.01 to 15 nM

Given CC(C)n1cnc2cc(-c3ncc(N(C)C4CC5CCC(N5)[C@H]4F)nn3)c(O)cc2c1=O (stereo partly drawn) , state its recorded IC50. 101 to 500 nM

Given CN(c1cnc(-c2cc3ncn(C)c(=O)c3cc2O)nn1)C1CC2COCC(C1)N2 (stereo not drawn) , state its recorded IC50. 0.01 to 15 nM

Given CN(c1cnc(-c2cc3ccn(C)c(=O)c3cc2O)nn1)C1CC2COCC(C1)N2 (stereo not drawn) , state its recorded IC50. 0.01 to 15 nM

Given `Cc1nc2cc(O)c(-c3ncc(N(C)[C@@H]4CC5CC[C@H](N5)[C@@H]4F)nn3)cc2nc1C` , state its recorded IC50. 16 to 50 nM

Given `Cc1cnc2cc(O)c(-c3ncc(N(C)[C@H]4C[C@@H]5CCC(N5)[C@H]4F)nn3)cc2n1` , state its recorded IC50. 16 to 50 nM

Given `[2H]C([2H])([2H])N(c1cnc(-c2cc3ccn(C([2H])([2H])[2H])c(=O)c3cc2O)nn1)[C@H]1C[C@@H]2CCC(N2)[C@H]1F` , state its recorded IC50. 0.01 to 15 nM

Given Cc1cnc2cc(-c3ncc(N(C)[C@@H]4CC5CCCC(N5)[C@@H]4F)nn3)c(O)cc2n1 (stereo partly drawn) , state its recorded IC50. 101 to 500 nM

Given `Cc1cc2cc(-c3ncc(N(C)[C@H]4CC5CC[C@@H](N5)[C@H]4F)nn3)c(O)cc2c(=O)n1C` , state its recorded IC50. 0.01 to 15 nM

Others:
Given `[2H]C([2H])([2H])N(c1cnc(-c2cc3ccn(C([2H])([2H])[2H])c(=O)c3cc2O)nn1)[C@@H]1CC2CC[C@H](N2)[C@@H]1F` , state its recorded IC50. 51 to 100 nM

Given `[2H]C([2H])([2H])n1cnc2cc(-c3ncc(N(C)[C@H]4C[C@@H]5CCC(N5)[C@H]4F)nn3)c(O)cc2c1=O` , state its recorded IC50. 0.01 to 15 nM

Given CCn1ccc2cc(-c3ncc(N(C)C4CC5CCCC(N5)C4F)nn3)c(O)cc2c1=O (stereo not drawn) , state its recorded IC50. 51 to 100 nM

Given CCn1cnc2cc(-c3ncc(N(C)C4CC5CCC(N5)[C@@H]4F)nn3)c(O)cc2c1=O (stereo partly drawn) , state its recorded IC50. 51 to 100 nM

Given CN(c1cnc(-c2cc3ncn(C)c(=O)c3cc2O)nn1)[C@@H]1CC2CCC(N2)[C@@H]1F (single isomer, unassigned) , state its recorded IC50. 16 to 50 nM
